Data origin, for the record: the supplement of paper PMC7125110

B1: glmS ribozyme (parent)
chain: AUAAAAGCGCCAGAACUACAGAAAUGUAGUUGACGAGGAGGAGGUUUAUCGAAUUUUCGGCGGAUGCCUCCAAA

variants of: B1; assay: self-cleavage kobs at 2500 uM GlcN6P; higher = faster cleavage; RNA array; details: with glucosamine-6-phosphate
Fewer inactive variants are shown than the library holds.
// self-cleavage kobs at 2500 uM GlcN6P lookup, one value per entry
Response body: numeric value in s⁻¹, unit text excluded.

What measured self-cleavage kobs at 2500 uM GlcN6P goes with AUAAAAGCGCUAGAACUACAGAAAUGUAGUUGACGAGGAGGAGGUUUAUCGAACUCUCGGCGGAUGCCUCCAAA ?
0.000151

I would be grateful if you could share the reported self-cleavage kobs at 2500 uM GlcN6P for AUAAAAGCGCCAGAACUACAGAAAUGUAGUUGACGAGGUGGAGGUUUCUCGAAUUUUCGGCGGAUGCCUCCAAA .
0.000181

What does the record list as self-cleavage kobs at 2500 uM GlcN6P for AUAAAAGCGCCUGAACUACAGAAAUGUAGUUGACGAGGAGGAGGUUUAUCGAAUUUUCGGCGGAUGCCUCGAAA ?
0.000947

Which self-cleavage kobs at 2500 uM GlcN6P reading was recorded for the variant AUAAAAGCGCCAGAAGUACAGAAAUGUAGUUGACGAGGAGGAGGUUUAUCGACUUUUCGGCGGAUGCCUCCAAA ?
0.000524

self-cleavage kobs at 2500 uM GlcN6P for AUAAAAGCGCCAGAACUACAGAAAUGUAGUUGACGAGGAGGAGGUUUAUCGAAAUUCCGGCGGAUGCCUCCAAA ?
8.52e-05

Given AUAAACGCGCCAGAACUACAGAAAUGUAGUUGACGAGGAGGAGGUUUAUCGAAUGUUCGGCGGAUGCCUCUAAA , state its recorded self-cleavage kobs at 2500 uM GlcN6P.
6.13e-05
